Consider the following binders; for each one, report its EC50(MOG)/ EC50(GPA33).
tgt: T1, human GPA33 expressed on HEK293STF cells (EGFP-human GPA33 expression vector, ORIGENE RG210225) (human, UniProt Q99795 22-319)
T1 sequence (looked up): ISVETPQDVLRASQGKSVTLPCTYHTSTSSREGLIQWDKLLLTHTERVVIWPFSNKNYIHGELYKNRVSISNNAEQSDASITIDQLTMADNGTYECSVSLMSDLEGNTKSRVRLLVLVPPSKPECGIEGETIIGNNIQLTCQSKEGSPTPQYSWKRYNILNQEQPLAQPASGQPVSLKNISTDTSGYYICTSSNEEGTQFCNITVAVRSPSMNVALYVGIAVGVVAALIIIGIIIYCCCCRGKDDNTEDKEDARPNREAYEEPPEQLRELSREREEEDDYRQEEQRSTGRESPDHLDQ
assay.comment: cell-based or functional assay
Kindly provide the number alone.

// lookup EC50(MOG)/ EC50(GPA33) for G17-R2CRD-His (other) QMQLVQSGGGLVKPGGSLRLSCAASGFTFSSYNMNWVRQAPGKGLEWVSSISSSGDFMYYADSVKGRFTISRDNAKNSLYLQMSSLRAEDTAVYYCAREGPGTPFDYWGQGTLVTVSSGGGGSGGGGSGSTGSAIQLTQSPSSLSASVGDRVTITCRASQSISSFLNWYQHKPGKAPKLLIYVASSLQSGVPSRFSGSGSGTDFTLTISSLQPEDFATYYCQQSHNTPYTFGQGTKLEIKGGGGSGGGGSGGGGSNPICKGCLSCSKDNGCSRCQQKLFFFLRREGMRQYGECLHSCPSGYYGHRAPDMNRCARCRIENCDSCFSKDFCTKCKVGFYLHRGRCFDECPDGFAPLEETMECVEGHHHHHHGA 15.2

Look up EC50(MOG)/ EC50(GPA33): G17-R1CRD-His (other) QMQLVQSGGGLVKPGGSLRLSCAASGFTFSSYNMNWVRQAPGKGLEWVSSISSSGDFMYYADSVKGRFTISRDNAKNSLYLQMSSLRAEDTAVYYCAREGPGTPFDYWGQGTLVTVSSGGGGSGGGGSGSTGSAIQLTQSPSSLSASVGDRVTITCRASQSISSFLNWYQHKPGKAPKLLIYVASSLQSGVPSRFSGSGSGTDFTLTISSLQPEDFATYYCQQSHNTPYTFGQGTKLEIKGGSGGSISAEGSQACAKGCELCSEVNGCLKCSPKLFILLERNDIRQVGVCLPSCPPGYFDARNPDMNKCIKCKIEHCEACFSHNFCTKCKEGLYLHKGRCYPACPEGSSAANGTMECSSPAHHHHHHGA 968

Recorded EC50(MOG)/ EC50(GPA33) for R1CRD-G17-His (other) ISAEGSQACAKGCELCSEVNGCLKCSPKLFILLERNDIRQVGVCLPSCPPGYFDARNPDMNKCIKCKIEHCEACFSHNFCTKCKEGLYLHKGRCYPACPEGSSAANGTMECSSGGGGSGGGGSGGGGSQMQLVQSGGGLVKPGGSLRLSCAASGFTFSSYNMNWVRQAPGKGLEWVSSISSSGDFMYYADSVKGRFTISRDNAKNSLYLQMSSLRAEDTAVYYCAREGPGTPFDYWGQGTLVTVSSGGGGSGGGGSGSTGSAIQLTQSPSSLSASVGDRVTITCRASQSISSFLNWYQHKPGKAPKLLIYVASSLQSGVPSRFSGSGSGTDFTLTISSLQPEDFATYYCQQSHNTPYTFGQGTKLEIKHHHHHHGA , please? 307
